- TARGET_UNDER_TEST: human Cot/Tpl2 kinase (Homo sapiens)
- Construct: human Cot/Tpl2 kinase construct encoding residues 30-398; 6His (N); made in house; host or cells: Sf9 insect cells, baculovirus system (BD Biosciences)
- Sequence (P41279 30-398): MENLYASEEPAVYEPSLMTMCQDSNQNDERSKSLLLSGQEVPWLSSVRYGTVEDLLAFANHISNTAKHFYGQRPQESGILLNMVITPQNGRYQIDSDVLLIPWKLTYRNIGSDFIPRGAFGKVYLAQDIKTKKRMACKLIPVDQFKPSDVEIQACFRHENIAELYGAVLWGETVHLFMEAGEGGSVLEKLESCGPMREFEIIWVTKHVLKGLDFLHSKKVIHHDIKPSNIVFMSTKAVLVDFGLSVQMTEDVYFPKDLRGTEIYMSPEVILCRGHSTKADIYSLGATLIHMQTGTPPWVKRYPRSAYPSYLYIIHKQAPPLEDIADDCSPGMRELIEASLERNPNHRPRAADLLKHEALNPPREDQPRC
- PROTOCOL_SUMMARY: Tpl2/Cot kinase assay: GST-MEK1 phosphorylation detected by ELISA (DELFIA Eu)
- Format: biochemical
- CONDITION: Tpl2/Cot kinase, GST-MEK1 substrate, 50 uM ATP, 1 h at 30° C.; Table 2
Listing of recorded IC50 by entry.

[
  {
    "MOLECULE": "COC(=O)N1CCC(n2cc(CN(C(=O)OC)c3cc(Cl)c4ncc(C#N)c(Nc5ccc(F)c(Cl)c5)c4c3)nn2)CC1",
    "TARGET_UNDER_TEST": "human Cot/Tpl2 kinase (Homo sapiens)",
    "BOUND_TYPE": "=",
    "IC50, nM": 610
  },
  {
    "MOLECULE": "N#Cc1cnc2c(Cl)cc(NCc3cncc(C4(O)CCNCC4)c3)cc2c1Nc1ccc(F)c(Cl)c1",
    "TARGET_UNDER_TEST": "human Cot/Tpl2 kinase (Homo sapiens)",
    "BOUND_TYPE": ">",
    "IC50, nM": 3000
  },
  {
    "MOLECULE": "N#Cc1cnc2c(Cl)cc(NCc3cn(CCC4CCN(C5CCCC5)CC4)nn3)cc2c1Nc1ccc(F)c(Cl)c1",
    "TARGET_UNDER_TEST": "human Cot/Tpl2 kinase (Homo sapiens)",
    "BOUND_TYPE": "=",
    "IC50, nM": 200
  },
  {
    "MOLECULE": "CC(=O)N1C2CCC1CC(n1cc(CNc3cc(Cl)c4ncc(C#N)c(Nc5ccc(F)c(Cl)c5)c4c3)nn1)C2 (stereo not shown)",
    "TARGET_UNDER_TEST": "human Cot/Tpl2 kinase (Homo sapiens)",
    "BOUND_TYPE": "=",
    "IC50, nM": 24
  },
  {
    "MOLECULE": "CCNC1CCC(n2cc(CNc3cc(Cl)c4ncc(C#N)c(Nc5ccc(F)c(Cl)c5)c4c3)nn2)CC1 (stereo not shown)",
    "TARGET_UNDER_TEST": "human Cot/Tpl2 kinase (Homo sapiens)",
    "BOUND_TYPE": "=",
    "IC50, nM": 36
  },
  {
    "MOLECULE": "N#Cc1cnc2c(Cl)cc(NCc3cn(CCN4CCCCCC4)nn3)cc2c1NC1CCCC2(CCCC2)C1 (stereo not shown)",
    "TARGET_UNDER_TEST": "human Cot/Tpl2 kinase (Homo sapiens)",
    "BOUND_TYPE": ">",
    "IC50, nM": 3000
  },
  {
    "MOLECULE": "CN(C)CCn1cc(CNc2cc(Cl)c3ncc(C#N)c(NC4CCCC4)c3c2)nn1",
    "TARGET_UNDER_TEST": "human Cot/Tpl2 kinase (Homo sapiens)",
    "BOUND_TYPE": "=",
    "IC50, nM": 590
  }
]
